Test: NCI Yeast Anticancer Drug Screen. Data for the mlh1 rad18 strain (AID 175)
Conditions: S. cerevisiae mlh1 rad18 strain growth inhibition; at 50.0 µM; hits give high values
The panel holds about 79,000 compounds, 15% with a hit somewhere; the sample as a whole holds those more often.
Metric: growth inhibition (%)

- Cc1nc2c(ccc3ccccc32)s1: 15.4
- CCC/C=C(/C(C)=O)C(=O)OCC: -6.75
- S=c1[nH]ccn1-c1ccccc1Cl: -2.1
- COc1cc([C@@H]2c3cc4c(cc3[C@H](O)[C@H]3COC(=O)[C@H]23)OCO4)cc(OC)c1OC: 9
- CC12CC3CC1C(C(=O)O2)C3C(=O)O (centres undefined): -8.8
- C/C(=C\c1ccc([N+](=O)[O-])cc1)C(=O)O: 47.5
- Cc1cc2nc(CC(=O)c3ccccc3)c(=O)[nH]c2cc1C: 31.3
- O=C(O)C(c1ccccc1)C(O)c1ccccc1 (centres undefined): -7.45
- O=C1OC(c2ccc(F)cc2)CC1CN1CCOCC1 (centres undefined): 38.5
- Cc1c(C(=O)O)c(=O)n(-c2ccccc2)n1C: 13.6
- COc1ccc(C(C)C=O)cc1 (centres undefined): 2.3
- CC(=O)Nc1cccc(Cl)c1C: -0.35
- C#C[C@H]1CCCCCC1O (some centres undefined): 21.9
- N#CCCc1ccc(O)cc1: -19.1
- N=c1c(C(=O)OCc2ccccc2)ncc(CCl)n1O: 77.8
- CCCCC(O)c1ccccc1 (centres undefined): 6.8
- Cc1cc(O)ccc1O: 42.3
- N#Cc1ccc(OC(=O)Nc2ccc(Cl)c(Cl)c2)cc1: 5.8
- C#CC(C)(O)c1ccc(Cl)cc1 (centres undefined): 2.65
- Cc1cc(N2CCC(N3CCCC3)CC2)nc(/N=C(\N)Nc2ccc(Cl)c(Cl)c2)n1: 34
- O=[N+]([O-])c1ccc(-c2noc(-c3cccs3)n2)cc1: -11.8
- CC(=O)Nc1c(C)cc(C)cc1C: 0.1
- CC(C)C1CCCCC1O (centres undefined): 6.8
- Cc1ccc(Cl)cc1NC(=O)N(C)CCO: 22.7

The reported numbers originate from PubChem BioAssay (NCI).
